- subject of test: human CD73 (Homo sapiens)
- Sequence (P21589 27-549): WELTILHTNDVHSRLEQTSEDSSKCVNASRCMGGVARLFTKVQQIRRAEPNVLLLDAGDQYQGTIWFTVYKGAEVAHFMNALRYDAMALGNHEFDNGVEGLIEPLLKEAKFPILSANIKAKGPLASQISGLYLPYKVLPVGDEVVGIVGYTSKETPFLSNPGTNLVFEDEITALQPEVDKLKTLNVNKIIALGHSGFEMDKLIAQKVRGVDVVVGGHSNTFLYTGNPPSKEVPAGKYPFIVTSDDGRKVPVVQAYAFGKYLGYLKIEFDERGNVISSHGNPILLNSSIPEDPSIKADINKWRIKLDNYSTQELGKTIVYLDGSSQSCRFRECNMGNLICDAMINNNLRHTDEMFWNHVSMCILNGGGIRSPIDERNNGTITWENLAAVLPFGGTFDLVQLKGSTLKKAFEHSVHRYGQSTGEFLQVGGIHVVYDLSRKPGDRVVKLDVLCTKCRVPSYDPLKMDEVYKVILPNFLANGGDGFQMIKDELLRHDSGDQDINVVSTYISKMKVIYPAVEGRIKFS
- assay protocol: Inhibition of ecto-5′-nucleotidase (CD73) activity in CHO-CD73 cells, phosphate colorimetric readout
- conditions: CHO-K1 cells stably transfected with human CD73, 2500 cells per well, 25 μM AMP substrate, 50 minutes incubation at 37° C.; read-out: Potency: CD73 IC50
assay endpoint: IC50

Consider the worked cases shown below.
compound: O=P(O)(O)CP(=O)(O)OC[C@H]1O[C@@H](n2cnc3c(NC4CCOCC4)nc(Cl)nc32)[C@@H](F)[C@@H]1O
IC50: < 100 nM

compound: CC(Cn1cnc2c(NCc3ccccc3)ncnc21)OP(=O)(O)CP(=O)(O)O (stereo not shown)
IC50: > 1000 nM

compound: CN(c1nc(Cl)nc2c1ncn2[C@@H]1O[C@H](COP(=O)(O)CP(=O)(O)O)[C@@H](O)[C@H]1O)C1CCCC1
IC50: < 100 nM

From here, focus on the item given below.
Query string: Given C[C@@H](Nc1nc(Cl)nc2c1ccn2[C@@H]1O[C@H](COP(=O)(O)CP(=O)(O)O)[C@@H](O)[C@@H]1F)c1ccccc1 , state its recorded IC50.
Result string: < 100 nM

###

- subject of test: human CD73 (Homo sapiens, UniProt P21589)
- assay protocol: Inhibition of ecto-5′-nucleotidase (CD73) activity in CHO-CD73 cells, phosphate colorimetric readout
- conditions: CHO-K1 cells stably transfected with human CD73, 2500 cells per well, 25 μM AMP substrate, 50 minutes incubation at 37° C.; read-out: Potency: CD73 IC50
assay endpoint: IC50

molecule: CN(c1nc(Cl)cc2c1ncn2[C@@H]1O[C@H](COP(=O)(O)CP(=O)(O)O)[C@@H](O)[C@@H]1F)C1CCCC1
subject of test: human CD73 (Homo sapiens, UniProt P21589)
reported measurement: < 100 nM

molecule: O=P(O)(O)CP(=O)(O)OC[C@H]1O[C@@H](n2cnc3c(NC4CC4)nc(Cl)nc32)[C@@H](F)[C@@H]1O
subject of test: human CD73 (Homo sapiens, UniProt P21589)
reported measurement: < 100 nM

molecule: Nc1nc(Cl)nc2c1ncn2[C@@H]1O[C@H](COP(=O)(O)CP(=O)(O)O)[C@@H](O)[C@@H]1F
subject of test: human CD73 (Homo sapiens, UniProt P21589)
reported measurement: < 100 nM

Query string: Given CC(C)Nc1nc(Cl)nc2c1ncn2[C@@H]1O[C@H](COP(=O)(O)CP(=O)(O)O)[C@@H](O)[C@@H]1F , state its recorded IC50.
Result string: < 100 nM

Query string: Given CN(c1nc(Cl)nc2c1ncn2[C@@H]1O[C@H](COP(=O)(CP(=O)(Oc2ccc(Cl)c(Cl)c2)Oc2ccc(Cl)c(Cl)c2)Oc2ccc(Cl)c(Cl)c2)[C@@H](O)[C@H]1O)C1CCCC1 (stereo partly shown) , state its recorded IC50.
Result string: > 1000 nM

Query string: Given O=P(O)(O)CP(=O)(O)OC[C@H]1O[C@@H](n2cnc3c(OCc4ccccc4)nc(Cl)nc32)[C@@H](F)[C@@H]1O , state its recorded IC50.
Result string: < 100 nM

Query string: Given C[C@@H](Nc1nc(Cl)nc2c1cnn2[C@@H]1O[C@H](COP(=O)(O)CP(=O)(O)O)[C@@H](O)[C@H]1O)c1cccc(F)c1 , state its recorded IC50.
Result string: < 100 nM
